# assay_name: neutrophil viability (trypan blue exclusion)
# Type: cell-based, human
# cond: neutrophils; Table V, 25 μM, 37° C., 10 min
# Description: The viability was evaluated by trypan blue exclusion assay. The cell incubated at 37° C. for 10 min with effectors. The aliquot was mixed with an equal amount of trypan blue solution and immediately counte under a Nikon light microscope.
# viability at 10 min, 25 µM values compiled below
Hi! Could you send only the number? It should be in %, unit omitted.

Here's what some known entries look like.
CCCCCCCCCCCCC/C=C/[C@@H](O)[C@H](CO)N(C)C ... 29
CCCCCCCCCCCCC/C=C/[C@@H](O)[C@H](CO)[N+](C)(C)C ... 83

Please examine the following record next.
## Input Would you kindly share the measured viability at 10 min, 25 µM for CCCCCCCCCCCCC/C=C/[C@@H](O)[C@@H](N)CO ?
## Output 53

* * *

# assay_name: water solubility
# Format: physicochemical
# cond: particularly at physiologic pH
observed_property: water solubility

CCCCCCCCCCCCC/C=C/[C@@H](O)[C@H](CO)N(C)C ... less water soluble
CCCCCCCCCCCCC/C=C/[C@@H](O)[C@H](CO)NC ... less water soluble
CCCCCCCCCCCCC/C=C/[C@@H](O)[C@@H](N)CO ... less water soluble

The origin of these recorded values is patent US5466716A.
